- target: PSG G322A (PSD-95)
- assay details: FP displacement (competition) of FITC-15 AA CRIPT by library peptide, IC50 and Ki
- condition summary: read-out: Ki (µM), PSG G322A; FP displacement of FITC-15 AA CRIPT probe by acetylated PSD library peptide
Ends that are not written are not given here.

>  <substance>
Ac-YPPSSPTLSVSSTSL [KLH17]

>  <Ki>
671 µM

$$$$
>  <substance>
Ac-YDVVAVYPNAKVELV [PDLI4]

>  <Ki>
282 µM

$$$$
>  <substance>
Ac-YQARRGKKKSGSLVL [RHOA]

>  <Ki>
362 µM

$$$$
>  <substance>
Ac-YQSGPFIWIPSKEKL [DLG2]

>  <Ki>
615 µM

$$$$
>  <substance>
Ac-YLTGAPLATSDETSI [SEM4F]

>  <Ki>
218 µM

$$$$
>  <substance>
Ac-YQEQNKVLWIPASPL [DLG5]

>  <Ki>
654 µM

$$$$

----------
- target: PSG G322A (PSD-95)
- assay details: FP displacement (competition) of FITC-15 AA CRIPT by library peptide, IC50 and Ki
- condition summary: read-out: IC50 (µM), PSG G322A; FP displacement of FITC-15 AA CRIPT probe by acetylated PSD library peptide
observation type: IC50 (µM)

>  <test smiles>
CC[C@H](C)[C@H](NC(=O)[C@@H](NC(=O)[C@H](CCCCN)NC(=O)[C@H](CCCCN)NC(=O)CNC(=O)[C@H](CC(C)C)NC(=O)[C@H](CCCCN)NC(=O)[C@H](C)NC(=O)[C@H](CCSC)NC(=O)[C@H](CCCNC(=N)N)NC(=O)[C@H](CCSC)NC(=O)[C@H](CCCNC(=N)N)NC(=O)[C@H](CC(C)C)NC(=O)[C@H](C)NC(=O)[C@H](Cc1ccc(O)cc1)NC(C)=O)C(C)C)C(=O)O

>  <observation type>
IC50

>  <readout value>
1450

$$$$
>  <test smiles>
CSCC[C@H](NC(=O)[C@H](CC(N)=O)NC(=O)[C@H](CCCCN)NC(=O)[C@H](CC(C)C)NC(=O)[C@@H](NC(=O)[C@H](CC(=O)O)NC(=O)[C@H](Cc1ccc(O)cc1)NC(C)=O)C(C)C)C(=O)N[C@H](C(=O)N[C@@H](CC(=O)O)C(=O)N[C@@H](CCCCN)C(=O)N[C@@H](C)C(=O)N1CCC[C@H]1C(=O)N1CCC[C@H]1C(=O)NCC(=O)N[C@H](C(=O)O)C(C)C)[C@@H](C)O

>  <observation type>
IC50

>  <readout value>
824

$$$$
>  <test smiles>
CC[C@H](C)[C@H](NC(=O)[C@H](Cc1ccc(O)cc1)NC(=O)[C@H](CO)NC(=O)CNC(=O)[C@H](CO)NC(=O)[C@H](CCC(N)=O)NC(=O)[C@H](Cc1ccc(O)cc1)NC(C)=O)C(=O)N[C@@H](Cc1c[nH]c2ccccc12)C(=O)N[C@H](C(=O)N1CCC[C@H]1C(=O)N[C@@H](C)C(=O)N[C@@H](CCCCN)C(=O)N[C@@H](CCC(=O)O)C(=O)N[C@@H](CCCCN)C(=O)N[C@@H](CC(C)C)C(=O)O)C(C)C

>  <observation type>
IC50

>  <readout value>
1600

$$$$

----------
- target: PSG G322A G335A (PSD-95)
- assay details: FP displacement (competition) of FITC-15 AA CRIPT by library peptide, IC50 and Ki
- condition summary: read-out: Ki (µM), PSG G322A G335A; FP displacement of FITC-15 AA CRIPT probe by acetylated PSD library peptide
Ends that are not written are not given here.
observation type: Ki (µM)

>  <substance>
Ac-YPPSSPTLSVSSTSL [KLH17]

>  <observation type>
Ki

>  <readout value>
345

$$$$
>  <substance>
Ac-YQSGPFIWIPSKEKL [DLG2]

>  <observation type>
Ki

>  <readout value>
254

$$$$
>  <substance>
Ac-YQARRGKKKSGSLVL [RHOA]

>  <observation type>
Ki

>  <readout value>
457

$$$$
>  <substance>
Ac-YQETLFVGNDQVSEI [TM108]

>  <observation type>
Ki

>  <readout value>
370

$$$$
>  <substance>
Ac-YDVVAVYPNAKVELV [PDLI4]

>  <observation type>
Ki

>  <readout value>
305

$$$$
>  <substance>
Ac-YDKPLSKKHAHSVNF [PDLI5]

>  <observation type>
Ki

>  <readout value>
337

$$$$
>  <substance>
Ac-YLTGAPLATSDETSI [SEM4F]

>  <observation type>
Ki

>  <readout value>
185

$$$$
>  <substance>
Ac-YQEQNKVLWIPASPL [DLG5]

>  <observation type>
Ki

>  <readout value>
979

$$$$

----------
- target: PSG (PSD-95)
- assay details: FP displacement (competition) of FITC-15 AA CRIPT by library peptide, IC50 and Ki
- condition summary: read-out: Ki (µM), PSG; FP displacement of FITC-15 AA CRIPT probe by acetylated PSD library peptide
observation type: Ki

>  <compound>
CC[C@H](C)[C@H](NC(=O)[C@H](CO)NC(=O)[C@H](CCC(N)=O)NC(=O)[C@H](CCCNC(=N)N)NC(=O)[C@H](CCCCN)NC(=O)[C@H](CO)NC(=O)[C@H](CC(=O)O)NC(=O)[C@@H]1CCCN1C(=O)[C@H](Cc1ccc(O)cc1)NC(C)=O)C(=O)N[C@@H](CC(C)C)C(=O)N[C@@H](Cc1ccccc1)C(=O)N[C@@H](CO)C(=O)N[C@H](C(=O)N[C@@H](CCC(=O)O)C(=O)N[C@H](C(=O)O)C(C)C)[C@@H](C)O

>  <readout value>
46 µM

$$$$
>  <compound>
CC(=O)N[C@@H](Cc1ccc(O)cc1)C(=O)N[C@H](C(=O)N[C@@H](CCC(=O)O)C(=O)N[C@@H](CO)C(=O)N[C@@H](CCCCN)C(=O)N[C@@H](CCCCN)C(=O)N[C@@H](Cc1c[nH]cn1)C(=O)NCC(=O)N[C@@H](CCCNC(=N)N)C(=O)N[C@@H](Cc1c[nH]c2ccccc12)C(=O)N[C@@H](CCCCN)C(=O)N[C@@H](CC(C)C)C(=O)N[C@@H](Cc1c[nH]c2ccccc12)C(=O)N[C@@H](Cc1ccccc1)C(=O)N[C@@H](CC(C)C)C(=O)O)[C@@H](C)O

>  <readout value>
161 µM

$$$$
>  <compound>
CC(=O)N[C@@H](Cc1ccc(O)cc1)C(=O)N[C@@H](C)C(=O)N[C@@H](CO)C(=O)N[C@@H](CC(N)=O)C(=O)N[C@H](C(=O)N[C@@H](CC(N)=O)C(=O)N[C@H](C(=O)N[C@@H](CC(C)C)C(=O)N[C@@H](CC(N)=O)C(=O)N[C@@H](CCCNC(=N)N)C(=O)N[C@@H](CCCCN)C(=O)N[C@H](C(=O)N[C@H](C(=O)N1CCC[C@H]1C(=O)N[C@H](C(=O)O)C(C)C)[C@@H](C)O)[C@@H](C)O)[C@@H](C)O)[C@@H](C)O

>  <readout value>
49 µM

$$$$
>  <compound>
CC[C@H](C)[C@H](NC(=O)[C@@H]1CCCN1C(=O)[C@H](Cc1ccc(O)cc1)NC(C)=O)C(=O)NCC(=O)NCC(=O)N[C@@H](CO)C(=O)N[C@@H](CC(C)C)C(=O)N[C@@H](CC(N)=O)C(=O)N[C@@H](CO)C(=O)N[C@H](C(=O)N[C@H](C(=O)N[C@@H](CC(=O)O)C(=O)N[C@@H](CO)C(=O)N[C@@H](C)C(=O)N[C@@H](CC(C)C)C(=O)O)[C@@H](C)O)[C@@H](C)O

>  <readout value>
181 µM

$$$$
>  <compound>
CC(=O)N[C@@H](Cc1ccc(O)cc1)C(=O)N[C@@H](CCC(N)=O)C(=O)N[C@@H](CCCNC(=N)N)C(=O)NCC(=O)N[C@@H](CO)C(=O)N[C@@H](Cc1ccccc1)C(=O)N1CCC[C@H]1C(=O)N1CCC[C@H]1C(=O)N[C@@H](Cc1c[nH]c2ccccc12)C(=O)N[C@H](C(=O)N[C@@H](CCC(N)=O)C(=O)N[C@@H](CCC(N)=O)C(=O)N[C@H](C(=O)N[C@@H](CCCNC(=N)N)C(=O)N[C@H](C(=O)O)C(C)C)[C@@H](C)O)C(C)C [SYNGAP⍺1]

>  <readout value>
0.913 µM

$$$$

----------
- target: PSG G322A (PSD-95)
- assay details: FP displacement (competition) of FITC-15 AA CRIPT by library peptide, IC50 and Ki
- condition summary: read-out: Ki (µM), PSG G322A; FP displacement of FITC-15 AA CRIPT probe by acetylated PSD library peptide
// values below are reported Ki

>  <test smiles>
CSCC[C@H](NC(=O)[C@H](CO)NC(=O)[C@H](Cc1ccc(O)cc1)NC(=O)[C@H](CC(C)C)NC(=O)[C@H](Cc1ccc(O)cc1)NC(=O)[C@H](Cc1ccc(O)cc1)NC(=O)[C@H](Cc1ccccc1)NC(=O)[C@H](Cc1ccc(O)cc1)NC(C)=O)C(=O)N[C@H](C(=O)N[C@@H](Cc1ccc(O)cc1)C(=O)N[C@H](C(=O)N[C@@H](CC(C)C)C(=O)N[C@H](C(=O)N[C@@H](CO)C(=O)N[C@@H](Cc1ccccc1)C(=O)O)C(C)C)[C@@H](C)O)C(C)C

>  <Ki>
982 µM

$$$$
>  <test smiles>
CC[C@H](C)[C@H](NC(=O)[C@H](Cc1ccccc1)NC(=O)[C@H](Cc1ccc(O)cc1)NC(=O)[C@@H]1CCCN1C(=O)[C@H](CCC(N)=O)NC(=O)[C@H](Cc1ccc(O)cc1)NC(C)=O)C(=O)N[C@H](C(=O)N[C@@H](CC(N)=O)C(=O)N[C@@H](CO)C(=O)N[C@@H](CCCCN)C(=O)N[C@H](C(=O)N[C@@H](CCC(=O)O)C(=O)N[C@H](C(=O)N[C@H](C(=O)N[C@H](C(=O)O)C(C)C)[C@@H](C)O)C(C)C)[C@@H](C)O)[C@@H](C)O

>  <Ki>
328 µM

$$$$
>  <test smiles>
CC[C@H](C)[C@H](NC(=O)[C@@H](NC(=O)[C@H](CCCCN)NC(=O)[C@H](CCCCN)NC(=O)CNC(=O)[C@H](CC(C)C)NC(=O)[C@H](CCCCN)NC(=O)[C@H](C)NC(=O)[C@H](CCSC)NC(=O)[C@H](CCCNC(=N)N)NC(=O)[C@H](CCSC)NC(=O)[C@H](CCCNC(=N)N)NC(=O)[C@H](CC(C)C)NC(=O)[C@H](C)NC(=O)[C@H](Cc1ccc(O)cc1)NC(C)=O)C(C)C)C(=O)O

>  <Ki>
629 µM

$$$$
>  <test smiles>
CC(=O)N[C@@H](Cc1ccc(O)cc1)C(=O)N[C@@H](CC(C)C)C(=O)N[C@@H](Cc1c[nH]cn1)C(=O)NCC(=O)N[C@@H](Cc1c[nH]cn1)C(=O)N[C@@H](CCCNC(=N)N)C(=O)N[C@@H](Cc1ccc(O)cc1)C(=O)N[C@@H](CO)C(=O)N[C@@H](CO)C(=O)NCC(=O)N[C@@H](CO)C(=O)N[C@@H](CCCNC(=N)N)C(=O)N[C@@H](CO)C(=O)N[C@@H](CC(C)C)C(=O)N[C@H](C(=O)O)C(C)C

>  <Ki>
286 µM

$$$$
>  <test smiles>
CC[C@H](C)[C@H](NC(=O)[C@H](CCC(=O)O)NC(=O)[C@H](CCC(=O)O)NC(=O)[C@@H](NC(=O)[C@@H](NC(=O)[C@H](CO)NC(=O)[C@H](CCC(=O)O)NC(=O)[C@H](Cc1ccc(O)cc1)NC(C)=O)[C@@H](C)O)[C@@H](C)O)C(=O)N[C@@H](CCC(=O)O)C(=O)N[C@@H](CC(C)C)C(=O)N[C@@H](CCC(=O)O)C(=O)N[C@@H](CC(=O)O)C(=O)N[C@H](C(=O)N[C@@H](CCC(=O)O)C(=O)N[C@@H](CS)C(=O)O)C(C)C

>  <Ki>
37 µM

$$$$
>  <test smiles>
CSCC[C@H](NC(=O)[C@H](CCC(N)=O)NC(=O)[C@H](CC(=O)O)NC(=O)[C@H](Cc1ccc(O)cc1)NC(=O)[C@H](CC(=O)O)NC(=O)[C@@H]1CCCN1C(=O)[C@H](CO)NC(=O)[C@H](CCCCN)NC(=O)[C@H](CC(C)C)NC(=O)[C@H](Cc1ccc(O)cc1)NC(C)=O)C(=O)N[C@@H](CO)C(=O)N[C@@H](CO)C(=O)N[C@@H](CO)C(=O)N1CCC[C@H]1C(=O)N[C@@H](CS)C(=O)O

>  <Ki>
894 µM

$$$$
